# TEST: Human HepG2 cell viability assay in 384 well format
# Type: toxicity, cell-based
# Parameters: dose 125 nL, time 70.5 hour; concentration not given beside the values
# EXPERIMENTAL_CONDITIONS: HepG2 cells, read-out: Inhibition
Assignment: determine reported cytotoxicity at 70.5 h for the given compounds.
Lab note: write values as number then unit, every time.

Specify measured cytotoxicity at 70.5 h for Cc1ccnc(NC(=O)c2cnc(C3CCCNC3)cn2)c1 (stereo unspecified) .
-4.33%

Tell me its cytotoxicity at 70.5 h given `CCc1noc(CN(CC)Cc2cc3cc(C)ccc3[nH]c2=O)n1` as the entry.
-10.7%

Using the record for CC(C)c1nn(C)c(N(C)C)c1CNC1CCCOc2ccccc21 (stereo unspecified) , state its measured cytotoxicity at 70.5 h.
31.4%

Quote cytotoxicity at 70.5 h reported for `CS(=O)(=O)c1ccc2c(c1)N(C(=O)Cc1cccc(F)c1)CCC2` please.
-0.9%

State its cytotoxicity at 70.5 h: `Cc1cc(C(F)(F)F)cc(N2C[C@@H](CN3CCOCC3)[C@@H](CO)C2)n1`
-16.2%

Answer with reported cytotoxicity at 70.5 h of CC(=O)N1CCCC1c1cccc(C)c1C (stereo unspecified)
-4.04%

Identify measured cytotoxicity at 70.5 h corresponding to `COCCN1CCC(NC(=O)C(C)C)CC1`
-1.39%

Kindly indicate its recorded cytotoxicity at 70.5 h. Item: `O=C(N[C@@H]1CC[C@@H](N2CCCC2)[C@@H]1O)c1cc2ccccc2[nH]1`
-5.76%

Note down cytotoxicity at 70.5 h recorded for CN(CCC(C)(C)O)C(=O)C1CCC(=O)N(Cc2ccc(Cl)cc2)C1 (stereo unspecified)
-5.36%

Consider the compound CC(C)NC(=O)N1CCOC2(CCCN(c3cccc(C#N)c3)C2)C1 (stereo unspecified) . State its measured cytotoxicity at 70.5 h.
-10.4%

Answer with reported cytotoxicity at 70.5 h of `CCC[C@@H]1CN(C(=O)c2cc(-c3cccs3)n(C)n2)C[C@H]1N(C)C`
-8.43%
